- assayed_target: Dihydrofolate reductase (Trypanosoma cruzi)
- assay_summary: Inhibitory activity against Trypanosoma cruzi dihydrofolate reductase
Entries and their pKi
On this scale, pKi is minus log10 of a concentration expressed in M (mol/L).

{"compound": "CCOC(=O)CCCCCN(Cc1cnc2nc(N)nc(N)c2n1)c1ccc(C(=O)NC(CCC(=O)OCC)C(=O)OCC)cc1 (stereo not drawn)", "assayed_target": "Dihydrofolate reductase (Trypanosoma cruzi)", "experimental_result": 7.25}
{"compound": "Nc1nc(N)c2nc(CN(CCCCC(=O)O)c3ccc(C(=O)NC(CCC(=O)O)C(=O)O)cc3)cnc2n1 (stereo not drawn)", "assayed_target": "Dihydrofolate reductase (Trypanosoma cruzi)", "experimental_result": 9.88}

Query string: For CCOC(=O)CCCCN(Cc1cnc2nc(N)nc(N)c2n1)c1ccc(C(=O)NC(CCC(=O)OCC)C(=O)OCC)cc1 (stereo not drawn) , write its pKi.
Result string: 7.34
